Quick list: EC50 per entry.
# target_desc: Human KCNQ2/3 channel (Homo sapiens (Human), UniProt O43525+O43526)
# experiment: Opening action with respect to KCNQ2/3 channel by depolarization stimulation (thallium influx, FLIPR)
# recorded_conditions: concentration giving 50% of maximum reaction of retigabine (10 μM); human KCNQ2/3 expression CHO-DHFR- cells; 5 mM potassium and 0.5 mM thallium; read-out: KCNQ2/3 ECrtg50
# Description: Human KCNQ2/3 expression cells (CHO-DHFR-cells) were seeded in each well of 384 well plate (collagen-coated, black, clear bottom) at 0.5×10^4 cells/50 μL per well, and cultured in a MEM ALPHA medium (containing 10 vol % inactivated (56° C., 30 min) Fetal Bovine Serum and 100 IU/mL Penicillin—100 μg/mL Streptomycin—2 mM L-Glutamine) at 37° C. in 5% CO2 for 18 to 24 hours. The medium in the plate was removed. […]
The response must be a number in nM with no trailing unit.

For orientation, consider the following solved cases.
>  <compound>
O=C(NCc1nc(C(F)(F)F)no1)Nc1c(Cl)cc([C@@H](O)C(F)(F)F)cc1Cl [Example 32 (1)]

>  <measurement_label>
EC50

>  <numeric_readout>
7

$$$$
>  <compound>
C[C@@](O)(c1cc(Cl)c(NC(=O)NCc2ncc(C(F)(F)F)cn2)c(Cl)c1)C(F)(F)F [Example 22 (2)]

>  <measurement_label>
EC50

>  <numeric_readout>
500

$$$$
>  <compound>
O=C(NCc1ncc(C(F)(F)F)cn1)Nc1c(Cl)cc([C@@H](O)C(F)(F)F)cc1Cl [Example 32 (4)]

>  <measurement_label>
EC50

>  <numeric_readout>
200

$$$$

Q: Quick one: EC50 of CC(O)(c1cc(Cl)c(NC(=O)NC[C@@H]2CCCO2)c(Cl)c1)C(F)(F)F (some centres unmarked) [Example 5 (15)] ?
A: 2300

Q: Another: O=C(NCc1cnc(C(F)(F)F)s1)Nc1c(Cl)cc([C@H](O)C(F)(F)F)cc1Cl [Example 36]
A: 30

Q: Another: CC(NC(=O)Nc1c(Cl)cc(C(C)(O)C(F)(F)F)cc1Cl)C(C)(C)C (centres unmarked) [Example 5 (4)]
A: 3

Q: Another: C[C@@](O)(c1cc(Cl)c(NC(=O)NCc2ccc(C#N)cc2)c(Cl)c1)C(F)(F)F [Example 22 (15)]
A: 200

Q: Another: C[C@@](O)(c1cc(Cl)c(NC(=O)NCc2ccc(Oc3ccc(F)cc3)cc2)c(Cl)c1)C(F)(F)F [Example 22 (16)]
A: 4
